Numbers sourced from PubChem BioAssay AID504329.

procedure.text: H1N1 influenza NS1A inhibitors, functional cell based assay (AID 504329)
settings: percent inhibition, at 12.5 µM, stronger effect = higher value
Screen size: about 340,000 compounds; about 1,000 (0.29%) were called active. The list is a sample of the results. Entries with a potency or affinity are not part of this list.
measured.property: inhibition (%)
Answers are plain numbers, in %.

{"molecule": "CC(C(=O)Nc1cccc(S(=O)(=O)N2CCOCC2)c1)N1CCN(C/C=C/c2ccccc2)CC1 (stereo not given)", "inhibition / %": -4.15}
{"molecule": "CCN1/C(=C2\\C(=O)N(C)C(=S)N2C)C=Cc2ccccc21", "inhibition / %": 6.98}

Dear colleague, could you send me inhibition for each of the items below? Thanks.
1. O=C(NCCc1ccccn1)c1ccc(NS(=O)(=O)c2ccc(F)cc2)cc1
2. CCOC(=O)C(NC(C)=O)(Nc1ccc(S(=O)(=O)Nc2nccs2)cc1)C(F)(F)F (stereo not given)
3. CNS(=O)(=O)c1cccc(C(=O)OCc2cc(=O)n3cc(Br)ccc3n2)c1
4. CCN1C(=O)/C(=c2\o/c(=C3\C=Cc4ccccc4N3CC)c(=O)n2CC)SC1=S
5. O=C(c1ccccc1F)N1CCN(C(=O)C(c2ccccc2)c2ccccc2)CC1
6. Cc1ccc(SCC(=O)NCCc2ccccc2)cc1
7. CC(=O)N1c2ccc(S(=O)(=O)N3CCCC(C(=O)Nc4ccc(F)cc4)C3)cc2CC1C (stereo not given)

-1.36
-7.42
1.47
19.6
6.85
4.08
1.22

According to the records, this molecule CCC(=O)Nc1nc(-c2ccccc2)nc(SC)c1C(C)=O displays inhibition of 5.59

---

procedure.text: H1N1 influenza NS1A inhibitors, functional cell based assay (AID 504329)
settings: percent inhibition, at 12.5 µM, stronger effect = higher value
Among all 340,000 compounds or so, about 1,000 (0.29%) were called active. A selection follows. Potency and affinity values are given separately.
measured.property: inhibition (%)
Numbers only, in %.

Past entries and their recorded results:
{"molecule": "Cc1ccccc1-c1nn[nH]n1", "inhibition (%)": -2.96}
{"molecule": "CCS(=O)(=O)N1CCN(S(=O)(=O)c2ccc(S(=O)(=O)NC3CC3)cc2)CC1", "inhibition (%)": 7.16}
{"molecule": "O=[N+]([O-])c1ccc(O)c2cccnc12", "inhibition (%)": -3.9}
{"molecule": "O=C1OCC(c2ccccc2)=C1c1ccccc1[N+](=O)[O-]", "inhibition (%)": -4.03}
{"molecule": "COc1ccc(N2CCN(C(=O)Cc3ncc(C(F)(F)F)cc3Cl)CC2)cc1", "inhibition (%)": -8.89}

Dear colleague, could you send me inhibition for each of the items below? Thanks.
1. Cc1ccc2[nH]c3nc(N/N=C/c4cccc(O)c4)nnc3c2c1
2. Cc1cc(C)c2nc(N3CCCC(C(=O)NC4CCCC4)C3)sc2c1 (centres undefined)
3. CC1CCCN(C(=O)CN2C(=O)c3ccccc3C2=O)C1 (centres undefined)
4. O=C1c2ccccc2-c2c1cccc2C(=O)N1CCCCCC1
5. CCOC(=O)C1=C(Cc2ccc(F)cc2)C(=O)c2ccccc2C1=O
6. CC(C)COCc1ccc(O)c2ncccc12
7. COc1ccc(S(=O)(=O)N2CCCC2C(=O)NCc2ccccc2Cl)cc1 (centres undefined)

1: 5.99; 2: 1.03; 3: -0.8; 4: -0.29; 5: 19.2; 6: 1.04; 7: -6.48

Dear colleague, could you send me inhibition for each of the items below? Thanks.
1. O=C(O)c1ccc2c(c1Nc1ccccc1)C(=O)c1ccccc1C2=O
2. CCCCOCCCNC(=S)Nc1ccc(S(=O)(=O)N2CCOCC2)cc1
3. CC12CCC(=O)N1C(C(=O)Nc1nc(-c3ccc(F)c(F)c3)cs1)CS2 (centres undefined)
4. CCc1ccc(Nc2n[n+](-c3ccccc3)c(-c3cccc(C)c3)s2)cc1
5. O=C(OC(C(=O)NCC1CCCO1)c1ccccn1)c1cccs1 (centres undefined)
6. CCN(CCN(C)C)C(=O)c1ccc2c(c1NCCO)C(=O)c1ccccc1C2=O
7. O=C(Nc1ccccc1)c1ccc(S(=O)(=O)NCc2cccnc2)cc1

[16.9, 0.29, -0.9, -15, -1.32, 12.9, 10.4]

Dear colleague, could you send me inhibition for each of the items below? Thanks.
1. COC(=O)c1cc2c(-c3ccccc3)c(C)c3ccccn3c-2c1C(=O)OC
2. c1ccc2c(-c3nn[nH]n3)cccc2c1
3. CCOC(=O)/C(=N\Nc1ncnc2ccccc12)c1ccc(C)cc1
4. CC1CC(C)CN(C(=O)c2cccc3c2-c2ccccc2C3=O)C1 (centres undefined)
5. CCc1n[nH]c(=S)n1/N=C/c1ccccn1
6. Cc1ccc([N+](=O)[O-])cc1S(=O)(=O)Nc1ccc(OCC(=O)N2CCOCC2)cc1

1. 26.4
2. -2.59
3. 12.6
4. -15
5. -4.28
6. -6.07
